Source: the supplement of paper PMC7877785

- experimental.protocol: self-splicing fitness, log relative to wild type (ln ratio); higher = more splicing; Tetrahymena group I intron in knt gene, E. coli kanamycin selection, DiMSum; sequences stand for … in CUCUCU…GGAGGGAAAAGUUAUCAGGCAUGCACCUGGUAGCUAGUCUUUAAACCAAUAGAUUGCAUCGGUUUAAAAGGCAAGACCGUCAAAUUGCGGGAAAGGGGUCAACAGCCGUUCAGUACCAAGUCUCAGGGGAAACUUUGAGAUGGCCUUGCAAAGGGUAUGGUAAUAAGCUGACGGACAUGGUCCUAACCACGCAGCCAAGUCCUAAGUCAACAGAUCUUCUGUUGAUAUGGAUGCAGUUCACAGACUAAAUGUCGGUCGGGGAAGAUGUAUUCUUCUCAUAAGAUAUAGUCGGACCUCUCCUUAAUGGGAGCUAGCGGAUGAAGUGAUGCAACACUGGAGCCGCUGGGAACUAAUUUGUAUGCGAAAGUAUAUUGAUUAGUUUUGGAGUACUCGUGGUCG;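 note: selection with 25 µg/mL kanamycin versus none on LB agar overnight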
- details: 37 °C
// thresholds for self-splicing fitness (ln) classes: small value: < -2; mid value: ≥ -2 and < -0.6; large value: ≥ -0.6

Reference set (4 entries):
UCGAAGCAAUAUUACGUUCU ... mid value
GUGCAGCAAUAUUACGAACG ... large value
CUUAAGCAAUAUUACGGGCG ... large value
CCCUAGCAAUAUUACGGAAU ... mid value

Class for ACGCAGCAAUAUUACGCGGU ? small value

Class for ACUCAGCAAUAUUACGUGAG ? mid value

Class for GCUGAGCAAUAUUACGACUC ? large value

Class for CCUAAGCAAUAUUACGCGAC ? small value

Class for AAGCAGCAAUAUUACGUAAG ? mid value

Class for UUUUAGCAAUAUUACGAGUA ? mid value

Class for UGCAAGCAAUAUUACGUGCU ? large value

Class for AUGUAGCAAUAUUACGCUUC ? small value

Class for GGGGAGCAAUAUUACGACAC ? mid value
